Origin of measurements: PubChem BioAssay AID1851

target: Cytochrome P450 2C9 (Homo sapiens) (UniProt P11712); assay: Cytochrome panel assay with activity outcomes; conditions: recombinant CYP, pro-luciferin dealkylation, luminescence, p450-cyp2c9; series mostly up to 57.1 µM; further: on the % scale 0 is the no-effect control and ±100 the full control effect
Sequence (P11712 whole entry, looked up): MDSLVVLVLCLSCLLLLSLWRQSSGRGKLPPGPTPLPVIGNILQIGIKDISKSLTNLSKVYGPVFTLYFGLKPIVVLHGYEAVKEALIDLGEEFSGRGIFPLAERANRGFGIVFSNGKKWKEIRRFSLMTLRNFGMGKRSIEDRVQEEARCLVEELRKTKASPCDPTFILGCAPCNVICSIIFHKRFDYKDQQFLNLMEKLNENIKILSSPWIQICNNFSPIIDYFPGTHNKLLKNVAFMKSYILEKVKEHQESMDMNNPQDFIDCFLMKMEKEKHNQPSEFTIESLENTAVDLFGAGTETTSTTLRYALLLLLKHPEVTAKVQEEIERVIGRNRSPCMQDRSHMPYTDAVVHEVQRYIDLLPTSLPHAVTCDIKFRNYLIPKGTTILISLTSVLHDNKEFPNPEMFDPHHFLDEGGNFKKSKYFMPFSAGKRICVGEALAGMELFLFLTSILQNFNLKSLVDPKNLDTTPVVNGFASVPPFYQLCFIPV
In all, about 16,000 compounds went through this assay and about 4,000 (25%) were called active. Another 26% or so got no clear call; they are omitted. A selection follows.
Kindly state activity, negative = inhibition for each of the entries shown.

Problem: Can you look up the measured activity, negative = inhibition of "Cc1cccc(CNc2cc(-c3ccccc3CN(C)C)ncn2)c1" for me?
Solution: -2.61% [at 2.29 µM] (inactive)

Problem: Given the entry "COc1ccccc1-c1nc(NCc2cnc(C)cn2)c2ccccc2n1" , report its measured activity, negative = inhibition.
Solution: 16.4% [at 2.29 µM] (inactive)

Problem: Please look up its activity, negative = inhibition: "CO[C@H]1COC(=O)[C@H](C)COC(=O)C/C=C\[C@@H](C)[C@H](OC)COC(=O)C/C=C\[C@@H]1C"
Solution: 8.36% [at 11.4 µM] (inactive)

Problem: Entry under review: "Cn1c(=S)c2[nH]c(SCCN3C(=O)c4ccccc4C3=O)nc2n(C)c1=O" . Reported activity, negative = inhibition?
Solution: -3.8% [at 11.4 µM] (inactive)

Problem: State the recorded activity, negative = inhibition for this entry: "CCC[C@H](Sc1nc(N)nc2nc[nH]c12)C(=O)O"
Solution: -1.85% [at 11.4 µM] (inactive)

Problem: Returns the measured activity, negative = inhibition for the input molecule. Input: "C#CCCCO/N=C1/C[C@@H](O)[C@@H](O)[C@@H]2[C@@H]3C(=O)N(C4CCCCC4)C(=O)[C@H]3CC[C@@H]12"
Solution: -15% [at 11.4 µM] (inactive)

Problem: Quick check: activity, negative = inhibition of "COCCNc1ccnc(-c2ccccc2CN(C)C)n1" ?
Solution: 0.0079% [at 2.29 µM] (inactive)

Problem: Consider the molecule "Cc1noc(C)c1-c1nc(Nc2ccncc2)c2ccccc2n1" and give its measured activity, negative = inhibition.
Solution: -10.8% [at 2.29 µM] (inactive)

Problem: For "COc1ccc(CNc2ncncc2-c2ccc(N(C)C)cc2)c(OC)c1" , what is its reported activity, negative = inhibition?
Solution: -16.8% [at 2.29 µM] (inactive)

Problem: For the molecule shown here, "COc1ccc2[nH]cc(CCNc3ncncc3-c3cccnc3)c2c1" , give the reported activity, negative = inhibition.
Solution: 0.571% [at 2.29 µM] (inactive)

Problem: I am curious: what activity, negative = inhibition value has been reported for "COc1ccc2c(c1)N(CC[C@H]1CCCCN1C)c1ccccc1S2" ?
Solution: -3.81% [at 11.4 µM] (inactive)

Problem: Which activity, negative = inhibition reading was recorded for the molecule "CCOC(=O)C[C@@H](C(=O)OCC)[C@@H]1CCCCC1=O" ?
Solution: 19.8% [at 11.4 µM] (inactive)

Problem: Could you share which activity, negative = inhibition value was measured for "CN(Cc1ccco1)c1nc(-c2ccccc2C(F)(F)F)nc2ccccc12" ?
Solution: -1.38% [at 2.29 µM] (inactive)

Problem: Look up activity, negative = inhibition: "c1ccc(-c2nnn(CCN3CCCCC3)n2)cc1"
Solution: 3.45% [at 11.4 µM] (inactive)

Problem: Endpoint output: activity, negative = inhibition of "O=c1ccnc(SCc2ccc(Cl)cc2)[nH]1" . Value?
Solution: -29.9% [at 11.4 µM] (inactive)

Problem: What does the record list as activity, negative = inhibition for "Cn1c(=O)c2[nH]c(CCCCc3nc4c([nH]3)c(=O)n(C)c(=S)n4C)nc2n(C)c1=S" ?
Solution: -2.51% [at 11.4 µM] (inactive)

Problem: Please give the measured activity, negative = inhibition for this molecule: "Nc1ncnc2c1nc(-c1ccccc1)n2[C@H]1O[C@@H](CO)[C@@H](O)[C@H]1O"
Solution: 9.27% [at 11.4 µM] (inactive)

Problem: Given "C[C@@H](c1ccccc1)N1C(=O)[C@H]2[C@H]3[C@H](O)[C@H](O)C/C(=N/OCc4ccccc4)[C@@H]3CC[C@@H]2C1=O" , state its recorded activity, negative = inhibition.
Solution: -23.4% [at 11.4 µM] (inactive)

Problem: Name the recorded activity, negative = inhibition for "COc1ccc2[nH]cc(CCNc3cc(-c4ccc(C(=O)N(C)C)cc4)ncn3)c2c1" .
Solution: 8.96% [at 2.29 µM] (inactive)

Problem: Query (molecule): "Cc1ccc2nc(CC(=O)c3ccc4ccccc4c3)c(=O)[nH]c2c1" ; field requested: activity, negative = inhibition
Solution: -7.8% [at 11.4 µM] (inactive)

Problem: Record request: activity, negative = inhibition value, item "N[C@@H](CSC(=O)c1ccccc1)C(=O)O"
Solution: 18.3% [at 11.4 µM] (inactive)
